experiment: Relative potency with respect to compactin; format: ADME
readout-label: Relative potency
Give the figure only, with no unit attached.

Query: Sample CCC(C)(C)C(=O)O[C@H]1C[C@H](C)[C@@H](O)[C@@H]2CC[C@H](C)[C@H](CC[C@@H]3C[C@@H](O)CC(=O)O3)C12 (stereo partly specified) — what was its Relative potency?
Result: 61

Query: Sample CCC(C)(C)C(=O)O[C@H]1C[C@@H](C)[C@@H](OP(=O)(c2ccccc2)c2ccccc2)[C@@H]2CC[C@H](C)[C@H](CC[C@@H]3C[C@@H](O)CC(=O)O3)C12 (stereo partly specified) — what was its Relative potency?
Result: 300

Query: Sample CCC(C)(C)C(=O)O[C@H]1C[C@H](C)[C@H](O)[C@@H]2CC[C@H](C)[C@H](CC[C@@H]3C[C@@H](O)CC(=O)O3)C12 (stereo partly specified) — what was its Relative potency?
Result: 11.1

Query: Sample CCC(C)(C)C(=O)O[C@H]1C[C@H](C)C(=O)[C@@H]2CC[C@H](C)[C@H](CC[C@@H]3C[C@@H](O)CC(=O)O3)C12 (stereo partly specified) — what was its Relative potency?
Result: 63

Query: Sample CCC(C)(C)C(=O)O[C@H]1C[C@@H](C)CC2CC[C@H](C)[C@H](CC[C@@H]3C[C@@H](O)CC(=O)O3)C21 (stereo partly specified) — what was its Relative potency?
Result: 138

Query: Sample CCC(C)(C)C(=O)O[C@H]1C[C@@H](C)C(=O)[C@@H]2CC[C@H](C)[C@H](CC[C@@H]3C[C@@H](O)CC(=O)O3)C12 (stereo partly specified) — what was its Relative potency?
Result: 125

====

Biological target: 3-hydroxy-3-methylglutaryl-coenzyme A reductase (Rattus norvegicus)
Sequence (P51639 whole entry): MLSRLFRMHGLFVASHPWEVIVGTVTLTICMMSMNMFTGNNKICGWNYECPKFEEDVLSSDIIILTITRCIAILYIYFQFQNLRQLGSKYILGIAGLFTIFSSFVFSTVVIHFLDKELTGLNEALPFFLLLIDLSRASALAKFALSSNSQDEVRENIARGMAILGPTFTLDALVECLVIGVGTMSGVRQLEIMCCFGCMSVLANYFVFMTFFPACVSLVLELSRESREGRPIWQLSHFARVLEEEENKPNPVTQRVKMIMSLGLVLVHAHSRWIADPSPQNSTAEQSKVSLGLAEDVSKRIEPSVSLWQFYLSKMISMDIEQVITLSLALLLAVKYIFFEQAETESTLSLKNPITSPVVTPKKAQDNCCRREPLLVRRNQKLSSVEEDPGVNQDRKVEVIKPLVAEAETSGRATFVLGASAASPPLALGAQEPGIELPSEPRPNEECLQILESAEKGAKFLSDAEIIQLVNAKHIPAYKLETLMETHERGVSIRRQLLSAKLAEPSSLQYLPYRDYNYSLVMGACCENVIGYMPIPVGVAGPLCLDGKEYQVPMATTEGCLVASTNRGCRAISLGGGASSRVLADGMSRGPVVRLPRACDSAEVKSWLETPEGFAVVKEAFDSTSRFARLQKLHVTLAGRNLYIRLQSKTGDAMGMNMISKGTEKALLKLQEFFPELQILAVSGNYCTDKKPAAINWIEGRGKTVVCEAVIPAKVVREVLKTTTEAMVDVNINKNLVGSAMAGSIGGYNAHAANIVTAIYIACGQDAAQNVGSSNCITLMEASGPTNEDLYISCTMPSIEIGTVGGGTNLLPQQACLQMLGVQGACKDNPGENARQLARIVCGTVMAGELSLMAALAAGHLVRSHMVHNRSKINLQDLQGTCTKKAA
Please note: IC50 exactly at 50 nM is Not fulfilled. Only values below 50 nM get Fulfilled.

Answered examples (5):
INSERT INTO measurements (compound, study_target, assigned_label) VALUES
  ('C=C(C)C[C@H](OC(=O)C(C)(C)CC)C1[C@H](O)CC[C@H](C)[C@@H]1CC[C@@H]1C[C@@H](O)CC(=O)O1 (stereo partly drawn)', '3-hydroxy-3-methylglutaryl-coenzyme A reductase (Rattus norvegicus)', 'Not fulfilled'),
  ('CCC(C)(C)C(=O)O[C@H]1C[C@@H](C)[C@@H](OCCc2ccccc2)[C@@H]2CC[C@H](C)[C@H](CC[C@@H]3C[C@@H](O)CC(=O)O3)C12 (stereo partly drawn)', '3-hydroxy-3-methylglutaryl-coenzyme A reductase (Rattus norvegicus)', 'Fulfilled'),
  ('CCC(C)(C)C(=O)O[C@H]1CC(C)(C)O[C@@H]2CC[C@H](C)[C@H](CC[C@@H]3C[C@@H](O)CC(=O)O3)C12 (stereo partly drawn)', '3-hydroxy-3-methylglutaryl-coenzyme A reductase (Rattus norvegicus)', 'Fulfilled'),
  ('CCC(C)(C)C(=O)O[C@H]1C[C@@H](C)[C@@H](OC(=O)N(Cc2ccccc2)Cc2ccccc2)[C@@H]2CC[C@H](C)[C@H](CC[C@@H]3C[C@@H](O)CC(=O)O3)C12 (stereo partly drawn)', '3-hydroxy-3-methylglutaryl-coenzyme A reductase (Rattus norvegicus)', 'Fulfilled'),
  ('CCC(C)(C)C(=O)O[C@H]1C[C@@H](C)C(=O)[C@@H]2CC[C@H](C)[C@H](CC[C@@H]3C[C@@H](O)CC(=O)O3)C12 (stereo partly drawn)', '3-hydroxy-3-methylglutaryl-coenzyme A reductase (Rattus norvegicus)', 'Fulfilled');

Query: # TODO verify IC50 < 50 nM strictly for this compound: CCC(C)(C)C(=O)O[C@@H](C[C@@H](C)CO)C1[C@H](O)CC[C@H](C)[C@@H]1CC[C@@H]1C[C@@H](O)CC(=O)O1 (stereo partly drawn)
Result: Not fulfilled

Query: # TODO verify IC50 < 50 nM strictly for this compound: CCC(C)(C)C(=O)O[C@H]1C[C@@H](C)[C@@H](O)[C@@H]2CC[C@H](C)[C@H](CC[C@@H]3C[C@@H](O)CC(=O)O3)C12 (stereo partly drawn)
Result: Fulfilled

====

assay: Relative potency with respect to compactin; format: ADME
Entry flag: YES if Relative potency reaches 300; NO if it does not.

INSERT INTO results (molecule, assigned_label) VALUES
  ('C=C(C)C[C@H](OC(=O)C(C)(C)CC)C1[C@H](O)CC[C@H](C)[C@@H]1CC[C@@H]1C[C@@H](O)CC(=O)O1 (stereo partly specified)', 'NO');

Now, please, on to the next molecule.
Query: Identify whether the reported Relative potency of the following molecule is 300 or greater: CCC(C)(C)C(=O)O[C@H]1CC(C)(C)O[C@@H]2CC[C@H](C)[C@H](CC[C@@H]3C[C@@H](O)CC(=O)O3)C12 (stereo partly specified)
Result: NO

====

Catalogue of compounds with associated Relative potency
assay: Relative potency with respect to compactin; assay type: ADME
Give the figure only, with no unit attached.

Worked examples, 2 compounds total:
INSERT INTO results (compound, readout_label, data_value) VALUES
  ('CCC(C)(C)C(=O)O[C@H]1C[C@@H](C)[C@@H](OC(=O)N(Cc2ccccc2)Cc2ccccc2)[C@@H]2CC[C@H](C)[C@H](CC[C@@H]3C[C@@H](O)CC(=O)O3)C12 (stereo partly drawn)', 'Relative potency', 94),
  ('CCC(C)(C)C(=O)O[C@H]1C[C@@H](C)[C@@H](O)[C@@H]2CC[C@H](C)[C@H](CC[C@@H]3C[C@@H](O)CC(=O)O3)C12 (stereo partly drawn)', 'Relative potency', 73);

Query: Sample CCC(C)(C)C(=O)O[C@@H](C[C@@H](C)CO)C1[C@H](O)CC[C@H](C)[C@@H]1CC[C@@H]1C[C@@H](O)CC(=O)O1 (stereo partly drawn) — what was its Relative potency?
Result: 0.5

====

test: Relative potency with respect to compactin; type: ADME
Catalogue of compounds with associated Relative potency

INSERT INTO measurements (compound, data_value) VALUES
  ('CCC(C)(C)C(=O)O[C@H]1C[C@](C)(CSc2ccccc2)O[C@@H]2CC[C@H](C)[C@H](CC[C@@H]3C[C@@H](O)CC(=O)O3)C12 (some centres undefined)', 280),
  ('CCC(C)(C)C(=O)O[C@H]1C[C@@](C)(CSc2ccccc2)O[C@@H]2CC[C@H](C)[C@H](CC[C@@H]3C[C@@H](O)CC(=O)O3)C12 (some centres undefined)', 258),
  ('CCC(C)(C)C(=O)O[C@H]1C[C@@H](C)[C@@H](OCCc2ccccc2)[C@@H]2CC[C@H](C)[C@H](CC[C@@H]3C[C@@H](O)CC(=O)O3)C12 (some centres undefined)', 300);

Okay, now this compound:
Query: Sample CCC(C)(C)C(=O)O[C@H]1C[C@@H](C)[C@@H](OC(=O)NCc2ccccc2)[C@@H]2CC[C@H](C)[C@H](CC[C@@H]3C[C@@H](O)CC(=O)O3)C12 (some centres undefined) — what was its Relative potency?
Result: 360
